molecular target: AHNAK1, Q09666; test: holdup assay; set-up: key: below the threshold = too weak to quantify, mostly under pKd 3.1 to 4; settings: plain residues with an end cap or a label only (N-terminal biotin on a linker: ttds)
Sequence (Q09666 4-100): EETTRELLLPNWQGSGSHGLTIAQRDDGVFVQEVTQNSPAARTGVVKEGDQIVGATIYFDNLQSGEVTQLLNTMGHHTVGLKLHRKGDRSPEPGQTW

>  <Binder>
SRSRRRETAL [HPV33-E6, P06427]

>  <pKd>
3.62

$$$$
>  <Binder>
SSIDLWETAL [SLC15A5, A6NIM6]

>  <pKd>
below the threshold

$$$$
>  <Binder>
SHSSKGETAV [FZD7, O75084]

>  <pKd>
below the threshold

$$$$
>  <Binder>
SGGKRKETLV [NET1, Q7Z628]

>  <pKd>
3.56

$$$$
>  <Binder>
GRLLGLETNV [ARHGEF26, Q96DR7]

>  <pKd>
below the threshold

$$$$
>  <Binder>
NPDALPETLV [ARHGAP6, O43182]

>  <pKd>
below the threshold

$$$$
>  <Binder>
GARVSKETPL [MAPK12, P53778]

>  <pKd>
below the threshold

$$$$
>  <Binder>
FVETQHQTQV [FAT3, Q8TDW7]

>  <pKd>
3.52

$$$$
>  <Binder>
PSRDRKETSI [RALBP1, Q15311]

>  <pKd>
below the threshold

$$$$
>  <Binder>
KQVVPFSSSV [GDA, Q9Y2T3]

>  <pKd>
below the threshold

$$$$
>  <Binder>
DLDEEEDTHL [PODXL, O00592]

>  <pKd>
below the threshold

$$$$
>  <Binder>
PPRQRSETQV [HPV82-E6, Q9IR59]

>  <pKd>
below the threshold

$$$$
>  <Binder>
QRPYRRESEI [KCNJ12, Q14500]

>  <pKd>
below the threshold

$$$$
>  <Binder>
PFRSRSPSEV [GPR6, P46095]

>  <pKd>
below the threshold

$$$$
>  <Binder>
KLVIKTETTV [RASSF6, Q6ZTQ3]

>  <pKd>
below the threshold

$$$$

Hello, the source for this data is paper PMC9482650, in case you need it.
